Test system: SMMC-7721
protocol details: Cytotoxicity against human SMMC7721 cells for 72 hrs under hypoxic condition by MTT assay
Assay type: functional, cell-based
experimental parameters: SMMC-7721, 72 h
assay endpoint: pIC50
// pIC50: -log10(molar conc.)

INSERT INTO assay_data (molecule, readout_value) VALUES
  ('COCNc1n[n+]([O-])c2ccccc2[n+]1[O-]', 5.61),
  ('CCOCNc1n[n+]([O-])c2ccccc2[n+]1[O-]', 5.37),
  ('CCCCOCNc1n[n+]([O-])c2ccccc2[n+]1[O-]', 5.40);

// query Any idea what pIC50 was measured for CCCCCOCNc1n[n+]([O-])c2cc(OC)ccc2[n+]1[O-] ?
// result 6.26

// query Any idea what pIC50 was measured for CCCCCCCOCNc1n[n+]([O-])c2ccccc2[n+]1[O-] ?
// result 5.51

// query Any idea what pIC50 was measured for CC(OCNc1n[n+]([O-])c2ccccc2[n+]1[O-])c1ccccc1 (stereo unspecified) ?
// result 5.61

###

Listing: IC50 of selected compounds
System: A549
protocol details: Cytotoxicity against human A549 cells for 72 hrs under normoxic condition by MTT assay
Assay type: functional, cell-based
experimental parameters: A549, 72 h
Give your result in µM as a bare value.

Observe how each entry below is paired with its result.
INSERT INTO assay_data (compound, assay_endpoint, readout_value) VALUES
  ('COc1ccc2c(c1)[n+]([O-])nc(NCOC(C)c1ccccc1)[n+]2[O-] (stereo not given)', 'IC50', 3.13),
  ('O=[N+]([O-])c1cccc(COCNc2n[n+]([O-])c3ccccc3[n+]2[O-])c1', 'IC50', 2.89),
  ('CC(C)CCOCNc1n[n+]([O-])c2ccccc2[n+]1[O-]', 'IC50', 7.27),
  ('[O-][n+]1nc(NCOC2CCCCC2)[n+]([O-])c2ccccc21', 'IC50', 5.18);

# ---- query compound ----
// query Any idea what IC50 was measured for COc1ccc2c(c1)[n+]([O-])nc(NCOCc1ccccc1)[n+]2[O-] ?
// result 2.5

###

Test system: A549
protocol details: Cytotoxicity against human A549 cells for 72 hrs under hypoxic condition by MTT assay
Type: functional, cell-based
experimental parameters: A549, 72 h
Could you mark each record true (1) if its IC50 falls strictly under 3000 nM, and false (0) if it equals or exceeds it?

INSERT INTO assay_data (molecule, group_label) VALUES
  ('[O-][n+]1nc(NCOCc2ccccc2)[n+]([O-])c2ccccc21', 'false (0)');

// query In the record for COCNc1n[n+]([O-])c2ccccc2[n+]1[O-] , is IC50 less than 3000 nM?
// result true (1)

###

System: SMMC-7721
protocol details: Cytotoxicity against human SMMC7721 cells for 72 hrs under hypoxic condition by MTT assay
Format: functional, cell-based
experimental parameters: SMMC-7721, 72 h
pIC50: −log10 of the molar value.
The label depends only on pIC50: Criterion met if it is at least 6, Criterion not met if it is smaller.

// below: answered compounds
INSERT INTO measurements (query_smiles, group_label) VALUES
  ('CCCCCOCNc1n[n+]([O-])c2ccccc2[n+]1[O-]', 'Criterion not met'),
  ('[O-][n+]1nc(NCOC2CCCCC2)[n+]([O-])c2ccccc21', 'Criterion not met'),
  ('Nc1n[n+]([O-])c2ccccc2[n+]1[O-]', 'Criterion not met'),
  ('[O-][n+]1nc(NCOCc2ccccc2)[n+]([O-])c2ccccc21', 'Criterion not met');

Read the next record carefully.
// query hey, is pIC50 for this one >= 6? O=[N+]([O-])c1cccc(COCNc2n[n+]([O-])c3ccccc3[n+]2[O-])c1
// result Criterion met
